PROCEDURE_DETAILS: Kinetics of RSSH generation by 1H NMR with NEM trapping
Format: physicochemical
RUN_CONDITIONS: pH 7.4 buffer with 20% MeOD, pH 7.4; read-out: half-life of precursor
QUANTITY_MEASURED: half-life

{"columns": ["MOLECULE", "half-life"],
 "data": [
  ["CC(=O)NC(C(=O)O)C(C)(C)SSC(=N)Nc1ccccc1.Cl (centres unmarked)", "4.3 min"]
]}

Could you now look at the following molecule, please?
half-life reading for CC(=O)NC(C(=O)O)C(C)(C)SSC(=N)Nc1ccc(C(F)(F)F)cc1.Cl (centres unmarked) : 6.8 min
